test: Acute toxicity after oral administration; details: mouse, in vivo; oral administration to male mice, estimated a week after administration
property-name: LD50 at 168 h

Item under review: COc1cc(NC(C)=O)ccc1OCC(O)CN1CCN(c2cccc(F)c2)CC1 (stereo not shown) . Reported LD50 at 168 h?
~1500 mg/kg
